Target: T1, myotoxin II from Bothrops asper (Bothrops asper, UniProt P24605)
T1 construct: also called Mt; M2; source: purified from Bothrops asper venom (CM-Sephadex C25, RP-HPLC), biotinylated
T1 sequence (P24605 17-137): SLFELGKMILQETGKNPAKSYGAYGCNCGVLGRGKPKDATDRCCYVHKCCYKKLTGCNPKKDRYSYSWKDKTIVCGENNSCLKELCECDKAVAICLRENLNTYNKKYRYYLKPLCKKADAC
Test: BLI; […]) biosensors ([…] (0, 1, 10, 100 nM; […]
Details: both partners purified
pKd: −log10 of the molar value.
recorded-endpoint: pKd

binder	endpoint-result
TPL0039_05_G08 IgG1 (LALA + YTE) (antibody, V domains shown, also called G08(LALA + YTE); copies: 2 + 2) VH: EVQLVESGGGVVQPGRSLRLSCAASGFTFSSYGMHWVRQAPGKGLEWVAVISYDGSNKYYADSVKGRFTISRDNSKNTLYLQMNSLRAEDTAVYYCARTNYDSGDAFDIWGQGTLVTVSS VL: NFMLTQPHSVSESPGKTVTISCTRSSGSIASNYVQWYQQRPGSSPTTVIYEDNQRPSGVPDRFSGSIDSSSNSASLTISGLKTEDEADYYCQSYDSSTVVFGGGTKLTVL	> 12.00
TPL0039_05_A03 IgG1 (LALA + YTE) (antibody, V domains shown, also called A03(LALA + YTE); copies: 2 + 2) VH: QVQLVESGGGLAKPGRSLRLSCAVSGFTFSSYGMHWVRQAPGKGLEWVAVISYDGSNKYYADSVKGRFTISRDNSKNTLYLQMNSLRAEDTAVYYCASTLQQLDAFDIWGQGTMVTVSS VL: NFMLTQPHSVSESPGKTITISCTRSSGSIASNYVQWYQQRPGSVPTPVIYEDDRRPSGVPDRFSGSIDSSSNSASLTISGLKTEDEADYYCQSYDSSSVVFGGGTKITVL	> 12.00

Next item in the queue.
Lab book: pKd of TPL0039_05_B12 IgG1 (LALA + YTE) (antibody, V domains shown, also called B12(LALA + YTE); copies: 2 + 2) VH: EVQLVESGGGVVQPGRSLRLSCAASGFTFSSYGMHWVRQAPGKGLEWVAVISYDGSNKYYADSVKGRFTISRDNSKNTLYLQMNSLRAEDTAVYYCAGWTEGDAFDIWGQGTLVTVSS VL: NFMLTQPHSVSESPGKTVTISCTRSSGSIASNYVQWYQQRPGSAPSTVIYEDNRRPSGVPDRFSGSIDSASNSASLTISGLKTEDEADYYCQSYDSSSVVFGGGTKITVL noted as > 12.00

Every entry's value here was drawn from paper PMC10791742.
